So I've got a bunch of molecules here, and I need their pIC50 values.
- Test system: MCF7
- assay summary: Antiproliferative activity against human MCF7 cells assessed as growth inhibition incubated up to 4 days by MTS assay
- Type: functional, cell-based
- measurement context: MCF7, 96 h
pIC50: −log10 of the molar value.

Reported pIC50 of O=C(C[n+]1ccn(C(c2ccccc2)c2cc3ccccc3oc2=O)c1)c1ccc(Br)cc1 (stereo not drawn) : < 4.70

Kindly note the recorded pIC50 for Cc1nc2ccccc2n1C(c1ccccc1)c1cc2ccccc2oc1=O (stereo not drawn) , which is < 4.70

Noted for Cc1n(C(c2ccccc2)c2cc3ccccc3oc2=O)c2ccccc2[n+]1CC(=O)c1ccccc1 (stereo not drawn) : its pIC50 reads < 4.70

Entry under test: O=c1oc2ccccc2cc1C(c1ccccc1)n1cnc2ccccc21 (stereo not drawn) . Its pIC50 was < 4.70

Summary for this molecule, O=C(C[n+]1ccn(C(c2ccccc2)c2cc3ccccc3oc2=O)c1)c1ccccc1 (stereo not drawn) : pIC50 is < 4.70

O=C(C[n+]1ccn(C(c2ccccc2)c2cc3ccccc3oc2=O)c1)c1ccc(C(F)(F)F)cc1 (stereo not drawn) yielded pIC50 of < 4.70

Item: Cc1n(C(c2ccccc2)c2cc3ccccc3oc2=O)c2ccccc2[n+]1CC(=O)c1ccc(Br)cc1 (stereo not drawn) | pIC50: < 4.70

GET /value?item= O=c1oc2ccccc2cc1C(c1ccccc1)n1ccnc1 (stereo not drawn) &field=pIC50 returns < 4.70

Please fill in: pIC50 reported for Cc1n(C(c2ccccc2)c2cc3ccccc3oc2=O)c2ccccc2[n+]1CC(=O)c1ccc2ccccc2c1 (stereo not drawn) = 5.55

// recorded pIC50 for O=C(C[n+]1cn(C(c2ccccc2)c2cc3ccccc3oc2=O)c2ccccc21)c1ccc2ccccc2c1 (stereo not drawn) : 5.89

For record COc1ccc(C(=O)C[n+]2ccn(C(c3ccccc3)c3cc4ccccc4oc3=O)c2)cc1 (stereo not drawn) the listed pIC50 is < 4.70

Lab note: Cc1cc2ncn(C(c3ccccc3)c3cc4ccccc4oc3=O)c2cc1C (stereo not drawn) gave pIC50 of < 4.70

Lookup result for COc1ccc(C(=O)C[n+]2c(C)n(C(c3ccccc3)c3cc4ccccc4oc3=O)c3ccccc32)cc1 (stereo not drawn) ; measured pIC50: 5.92
